B1: library; a variant is named by its letters at N, in order (parent)
chain: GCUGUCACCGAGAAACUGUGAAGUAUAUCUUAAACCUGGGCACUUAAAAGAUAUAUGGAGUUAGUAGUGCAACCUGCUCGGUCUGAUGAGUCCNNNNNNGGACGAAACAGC

# Variants of: B1
# ASSAY_DETAILS: FACS-Seq fitted mean relative fluorescence mCherry/BFP with ligand (log10 relative fluorescence); HEK293T; ligand: cyclic di-GMP (c-di-GMP-II aptamer); ligand concentration (+) FACS-Seq: 1 mM; higher = higher reporter protein expression
# CONDITIONS: ligand present: yes
Assign rule met to entries whose FACS-Seq fitted mean (log10) meets or exceeds 0.1; assign rule not met to the rest.

These solved cases illustrate the format of a correct answer.
{"columns": ["RESIDUE_CHANGE", "ANSWER_LABEL"],
 "data": [
  ["AUGUAC", "rule not met"],
  ["AGCCUU", "rule met"],
  ["UAUGGU", "rule not met"],
  ["CUAAUG", "rule not met"],
  ["GAAUAG", "rule not met"],
  ["AGGCAG", "rule not met"],
  ["CGGAAU", "rule not met"],
  ["CACUUG", "rule met"],
  ["AUUACG", "rule not met"],
  ["CAAGUA", "rule not met"]
]}

Q. Kindly determine if FACS-Seq fitted mean (log10) recorded for `AUUAAA` is above or exactly 0.1.
A. rule not met

Q. Is it the case that `UUUGUA` has FACS-Seq fitted mean (log10) reaching or exceeding 0.1?
A. rule not met

Q. Has `CUCUUG` a recorded FACS-Seq fitted mean (log10) greater than or equal to 0.1?
A. rule met

Q. Kindly determine if FACS-Seq fitted mean (log10) recorded for `CCUUCA` is above or exactly 0.1.
A. rule not met
